- TARGET UNDER TEST: DDR2 (Homo sapiens)
- Sequence (Q16832 563-849 limits assumed): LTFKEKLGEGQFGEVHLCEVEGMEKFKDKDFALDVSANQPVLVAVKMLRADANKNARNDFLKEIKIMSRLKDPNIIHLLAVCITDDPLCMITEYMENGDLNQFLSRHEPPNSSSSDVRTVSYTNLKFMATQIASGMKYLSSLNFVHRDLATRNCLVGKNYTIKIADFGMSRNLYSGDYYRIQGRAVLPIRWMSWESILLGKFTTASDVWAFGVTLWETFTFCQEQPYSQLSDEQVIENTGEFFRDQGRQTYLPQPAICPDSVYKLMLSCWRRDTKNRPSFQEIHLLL
PARAMETER MEASURED: IC50 (nM)

NS(=O)(=O)c1cccc(Nc2nccc(-c3sc4nccc(=O)n4c3-c3ccccc3Cl)n2)c1 24.2

(P) CN1CCN(c2ccc(Nc3nccc(-c4sc5nccc(=O)n5c4-c4cccc(O)c4)n3)cc2)CC1
(Q) CCc1c(C)nc2sc(-c3ccnc(Nc4cccc(N5CCN(CCO)CC5)c4)n3)c(-c3ccccc3)n2c1=O
(R) O=c1ccnc2sc(-c3ccnc(Nc4ccccc4)n3)c(-c3ccccc3)n12
Challenge: Rank items: key IC50, increasing. Returns: the labels arranged in the requested order.
Response given: P, Q, R
(P: 17.5 nM, Q: 69.4 nM, R: 186 nM)
